Details: in acetone, 288 K
recorded endpoint: solubility (mole fraction)
API doc: respond with a numeric literal and nothing else, no unit.

Value lookup for solubility (mole fraction); key = `c1ccc2c(c1)Cc1ccccc1-2`
0.049

====

Details: in chloroform, 318 K
recorded endpoint: solubility (mole fraction)
API doc: respond with a numeric literal and nothing else, no unit.

Value lookup for solubility (mole fraction); key = `c1ccc2c(c1)Cc1ccccc1-2`
0.22

====

Details: in chloroform, 313 K
recorded endpoint: solubility (mole fraction)
API doc: respond with a numeric literal and nothing else, no unit.

Value lookup for solubility (mole fraction); key = `c1ccc2c(c1)Cc1ccccc1-2`
0.195

====

Settings: in n-propanol, 323 K
recorded endpoint: solubility (mole fraction)
API doc: respond with a numeric literal and nothing else, no unit.

Value lookup for solubility (mole fraction); key = `c1ccc2c(c1)Cc1ccccc1-2`
0.0289

====

Conditions: in toluene, 303 K
recorded endpoint: solubility (mole fraction)

Value lookup for solubility (mole fraction); key = `c1ccc2c(c1)Cc1ccccc1-2`
0.152

====

Settings: in n-propanol, 298.4 K
recorded endpoint: solubility (mole fraction)
API doc: respond with a numeric literal and nothing else, no unit.

Value lookup for solubility (mole fraction); key = `c1ccc2c(c1)Cc1ccccc1-2`
0.0134

====

Settings: in toluene, 298 K
recorded endpoint: solubility (mole fraction)
API doc: respond with a numeric literal and nothing else, no unit.

Value lookup for solubility (mole fraction); key = `c1ccc2c(c1)Cc1ccccc1-2`
0.124

====

Settings: in acetone, 298 K
recorded endpoint: solubility (mole fraction)
API doc: respond with a numeric literal and nothing else, no unit.

Value lookup for solubility (mole fraction); key = `c1ccc2c(c1)Cc1ccccc1-2`
0.0687

====

Details: in n-propanol, 308 K
recorded endpoint: solubility (mole fraction)
API doc: respond with a numeric literal and nothing else, no unit.

Value lookup for solubility (mole fraction); key = `c1ccc2c(c1)Cc1ccccc1-2`
0.0188

====

Settings: in isobutanol, 318 K
recorded endpoint: solubility (mole fraction)
API doc: respond with a numeric literal and nothing else, no unit.

Value lookup for solubility (mole fraction); key = `c1ccc2c(c1)Cc1ccccc1-2`
0.023

====

Conditions: in n-propanol, 283 K
recorded endpoint: solubility (mole fraction)
API doc: respond with a numeric literal and nothing else, no unit.

Value lookup for solubility (mole fraction); key = `c1ccc2c(c1)Cc1ccccc1-2`
0.00817

====

Details: in benzene, 323 K
recorded endpoint: solubility (mole fraction)
API doc: respond with a numeric literal and nothing else, no unit.

Value lookup for solubility (mole fraction); key = `c1ccc2c(c1)Cc1ccccc1-2`
0.235

====

Settings: in isobutanol, 293 K
recorded endpoint: solubility (mole fraction)
API doc: respond with a numeric literal and nothing else, no unit.

Value lookup for solubility (mole fraction); key = `c1ccc2c(c1)Cc1ccccc1-2`
0.00691

====

Settings: in isobutanol, 298.4 K
recorded endpoint: solubility (mole fraction)
API doc: respond with a numeric literal and nothing else, no unit.

Value lookup for solubility (mole fraction); key = `c1ccc2c(c1)Cc1ccccc1-2`
0.00902

====

Conditions: in chloroform, 303.1 K
recorded endpoint: solubility (mole fraction)
API doc: respond with a numeric literal and nothing else, no unit.

Value lookup for solubility (mole fraction); key = `c1ccc2c(c1)Cc1ccccc1-2`
0.153

====

Conditions: in isobutanol, 288 K
recorded endpoint: solubility (mole fraction)
API doc: respond with a numeric literal and nothing else, no unit.

Value lookup for solubility (mole fraction); key = `c1ccc2c(c1)Cc1ccccc1-2`
0.00544

Reference source for all entries: BigSolDB 2.1
